test: yeast display, Sf9 membrane polyspecificity reagent, FACS + sequencing; frameworks hold sequencing errors
attribute measured: polyreactivity (PSR sort gate)

>>> result("QVQLVESGGGLVQAGGSLRLSCAASGSIFLYYAMGWYRQAPGNERELVAGINRVGSTNYADSVKGRFTISRDNAKNTVYLQMNSLKPEDTAVYYCNKRATRSRRRGYWGQGTQVTVSS")
"low polyreactivity"
>>> result("QVQLVDSGGGLVQAGGSLRLSCAASGRTFDNYAMGWYRQAPGKERELVAAISSSGGRTYYADSVKGRFTISRDNAKNTVYLQMNSLKPEDTAVYYCAAVWPVYRTHPGMDYWGHGTQVTVSS")
"high polyreactivity"
>>> result("QVQLVESGGGLVQAGGSLRLSCAPSGRTFVYYAMGWYRQAPGKERELVASISSGGGSTNYADSVKGRFTISRDNAKNTVYLQMNSLKPEDTAVYYCAVDTPRYRYYRTSYDYWGQGTQGTVSS")
"low polyreactivity"
>>> result("QVQLVESGGGLVQAGGSLRLSCAASGRTCYNTMGWYRQSPGKERELVAAISRGGITNYADSVKGRFTISRDNAKNTVYLQMNSLKPADTAVYYCIAEPKRYYYYYKFDYWGQGTQVTVSS")
"high polyreactivity"

Query: # get_value(readout='polyreactivity (PSR sort gate)', item= QVQLVESGGGLVQAGGSLRLSCAASGTFSPYAIGWYRQAPGKERELVAVITSNTGRTYADSVKGRFTISRDNAKNTVYLQMNSLKPEDTAVYYCAARSTYRHWYRTGSRFDYWGQGTQVTVSS )
Result: low polyreactivity

---

test: yeast display, Sf9 membrane polyspecificity reagent, FACS + sequencing; frameworks hold sequencing errors
attribute measured: polyreactivity (PSR sort gate)

// worked examples, polyreactivity (PSR sort gate) included
>>> result("QVQLVDSGGGLVQAGGSLRLSCAASGSIVVLYAMGWYRQAPGKERELVAAITSGASTNYADSVKGRFTISRDNAKNTVYLQMNSLKPEDTAVYYCHTGSRLDRVDSWGQGTQVTVSS")
"low polyreactivity"
>>> result("QVKLVESGGCLVKAGGSLRLSCAATGRIFLYYAMGWYRQAPGKEMELVATITSGGRTNYADSVKGRFTISRDNAKNTVYLQMNSLKPVDTAVYNCARQSYGSYRRYGFSALYGYLGQGTQVTVSS")
"high polyreactivity"
>>> result("QVQLVESGGGLVQAGGSLRLSCAASGIIFGRYAMGWYRQAPGKERELVAAITRGGSTKYADSVKGRFTISRDNAKNTVYLQMNSLKPEDTAVYYCARVRRYPLRYNYWGQGTQVTVSS")
"high polyreactivity"
>>> result("QVQLVESGGGLVQAGGSLRLSCAASGRIFNYNAMGWYRQAPGKERELVAVITSGDSTNYADSVKGRFTISRDNAKNTVYLQMNSLKPVDTAVYYCAAEYYSIRYGPNSIEVYGMDYWGQGTQVTVSS")
"low polyreactivity"

Query: Reported polyreactivity (PSR sort gate) for QVQLVESGGGLVQAGGSLRLSCAASGSTISGYAKGWYRQAPGKERELVATISRGGSTNYADSVKGRFTISRDNAKNTVYLQMNSLKPEDTEVYYCAAVVSDYVWRYEYWGQGTQVTVSS : what is it?
Result: low polyreactivity

---

assay: yeast display, Sf9 membrane polyspecificity reagent, FACS + sequencing; frameworks hold sequencing errors
attribute measured: polyreactivity (PSR sort gate)

>>> result("QVQLVESGGGLVQAGGSLRLSCAASGTIFLYYAMGWYRQAPGKERELVAGINRVGSTNYADSVKGRFTISRDNAKNTVYLQMNSLKPEDTAVFYCNKAATRSRSRGYWGQGTQVNVSS")
"low polyreactivity"
>>> result("QVQLVESGGGLVQAGGSLRLSCAASGLTLGRNAMGWYRQAPGKERELVAAISYGGGSTYYADSVKGRFTISRDNAKNTVYLQMNCLKPEDTAVYYCAADGWRTYGYYEYDYWGQGTQVTVSS")
"low polyreactivity"

---

test: yeast display, Sf9 membrane polyspecificity reagent, FACS + sequencing; frameworks hold sequencing errors
attribute measured: polyreactivity (PSR sort gate)

>>> result("QVQLVESGGGLVQAGGSLRLSCAASGFNFRTNAMGWYRQAPGKERELVAAISRSGNTYYADSVKGRFTISRDNAKNTVYLQMNSLKPEDTAVYYCAAQSVRWYSSFKYYYWRQGTQVTVSS")
"high polyreactivity"
>>> result("QVQLVETGGGLVQAGGSLRLICAASGSTFQNNAMGCYIQAPGKERELVAAIRFSGGSTYYADSVKGRFTISRDNAKNTVYLQMNSLKPEDTAVYYCNAVVKRWSDYSYPVRYDYWGQGTQVTVSS")
"high polyreactivity"
>>> result("QVQLVESGGGLVHAGGPLRLSCAPSGFIFRGYAMGWYRQAPGKEREFVAAISGSGGSTYYADSVKGRFTISRDNAKNTVFLQMNSLKTDDTAVYYCNARFWGVWGGYDYWGQGTQVTVSS")
"high polyreactivity"

---

experiment: yeast display, Sf9 membrane polyspecificity reagent, FACS + sequencing; frameworks hold sequencing errors
attribute measured: polyreactivity (PSR sort gate)

>>> result("QVQLVESGRGLVQAGGSLRLSCAPSGRISAQYTMGWYRQAPGKERELVAAITWSGTNTYYADSVKGRFTISRDNAKNTVYLQMNSLKPEDTAVYYCATAVYLVIFEYDYWGQGTQVTVSS")
"low polyreactivity"
>>> result("QVQLVESGGGLVQAGGILRLSCAASGIIFQRNEMGWYRQTPGKERELVANIRDGGITYADSVKGRFTISRDNAKNTVYLEMNSLKPEDTAVYYCARDDTSPGYCDQSSNAAYYYWGQGTQVTVSS")
"low polyreactivity"
>>> result("QVQLVESGGGLVQAGGSLRLSCAASGSTFYTNAMGWYRQAPGKERELVAAISGSGGSTYYADSVKGRFTISRDNAMNTVYLQMNSLKPEDTAVYYCADRSRYYDTRFDYWGQGTQVTVSS")
"low polyreactivity"

---

assay: yeast display, Sf9 membrane polyspecificity reagent, FACS + sequencing; frameworks hold sequencing errors
attribute measured: polyreactivity (PSR sort gate)

Some sequences with recorded polyreactivity (PSR sort gate):
>>> result("QVQLVESGGGLFQAGGSLRLSCAASGNTFPYYAMGWYRQAPVKERELVAAISRSGGTTYYADSVKGRFTISRDNAKNTVYLQMTSLKPEDTAVYYCAALYGSRSTYHMDDYWGQGSQVTVSS")
"high polyreactivity"
>>> result("QVQLVESGGGLVQAGGSLRLSCAASGRIFPGNPMGWYRQAPGKERELVAGISFSGGRTYYADSVKGRFTISRDNAKNTVYLQMNSLKPEDTAVYYCAADAQAPPGGFKEYDYWGQGTQVTVSS")
"low polyreactivity"
>>> result("QVQLVASGGGLVQAGGSLRLSCSASGSIFKYYAMGWYRQAPGKERELVAAISSSGNTYYADSVKGRFTISRDNAKNTVYLQMNSLKPEDTAVYYCAAGIRRYRTYDYWGQGTQVTVSS")
"high polyreactivity"
>>> result("QVQLVESGRGLVQAGGSLRLSCAASGITFTGYAMGWYRQAPGKERELVAASTSGGSTTYADSVKGRFTISRDNAKNTVYLQMNSQKPEDTAVYYCGARTADYSTAEYDYWGQGTQLTVSS")
"low polyreactivity"

Let us move to another entry and its polyreactivity (PSR sort gate).
Query: Suppose we examine the sequence QVQLVESGGGIVQAGGSLRLSCPASGFIGVNGMGWYIQAPGKERELVAAISSGGSTNYADSVKGRFTMSRDNAKNTVYLQMNSLKPEDTAVYYCAKDFLLDSFYHTYRYRYDYWGQGTQVTVSS ; what polyreactivity (PSR sort gate) value has been reported?
Result: low polyreactivity

---

test: yeast display, Sf9 membrane polyspecificity reagent, FACS + sequencing; frameworks hold sequencing errors
attribute measured: polyreactivity (PSR sort gate)

>>> result("QVQLVESGGGLVQAGGSLRLSCAASVLIFYWYAMGWYRQAPGKERELVAAISSAGSTNYADSVKGRFTISRDNAKNTVYLQMNSLKPEDTAVYYCYARIAYRYSNYGYWGQGTQVTVSS")
"low polyreactivity"
>>> result("QVQLVESGGGLVQAGGSLRLSCAASGRTFLRYAMGWYRQAPGKERELVAAITSSGGSTFYADSVKGRFTISRDNAKNTVYLQMNSLKPEDSAVYYCAASVGRGYYWGQGTQVTVSS")
"high polyreactivity"
>>> result("QVQLVESGGGLVQAGGSLRLSCAASGRSIWYYTMGWYRQAPGKERQFFAAITTSGGSTTYADSVKGRYTISRDTAKNTVFLQRNSLKPEDSAVYYCAARVYHGKSKYDYWGQGSQVTVSS")
"high polyreactivity"
>>> result("QVQLVESGGGLVQAGGSLRLSCAASGSIFYNYAMGWYRQAPGKERELVAAIKRSGGITFYADSVKGRFTISRDNAKNTVYLQMNSLKPEVTAVYYCAADRSFGHHFWYTGKRYDYWGQGTKVTVSS")
"low polyreactivity"
>>> result("QVQLVESGGGLVQAGCSLRVSSAASGRIFVYYAMGRYRQAPGKERELVAAIRWTGGSTYYADSVKGRFTISRDNAKNTVYLQMNSVKPEDTAVYYCATVNRYCHFNYWGQGTQVTVSS")
"high polyreactivity"

Please state, for each entry, its recorded polyreactivity (PSR sort gate).
1. QVQLVESGGGLVQAGGSLRLSCAASGLIFRYYAMGWYRQAPGKERELVAVISRRGDSTYYADSVKGRFTISRDNAKNTVYLHMNSLKPEDTAVYYCAAQAFVSYFKFRGGYWGQGTQVTVSS
2. QVQLVESGGGLVQAGGSLRFSCAASGFIFVSNAVGWYRQAPGKERELVAAISRRGGRTYYADSVKGRFTISRDNEKNTVYVPMNSLKPEDTAVYDCAADQYRVSHQWYDYWGQGTQVTVSS
3. QVQLVESGGGLVQAGGSLRLSCAASGFIFWYYDMGWYRQAPGKERELVAAISDRGGSTSYADSVKGRFTISRDNAKNTVYLQMNSLKPEDTAVYSCAVDRSLSPFAYDYWGQGTQVTVSS

Result:
["high polyreactivity", "high polyreactivity", "low polyreactivity"]

Items follow; give polyreactivity (PSR sort gate) for each.
1. QVQLEESGGGLVQAGGSLRLSCAASGRTFVYNTKGWYRQAPGKERELVAAITSSGGRTSYADSVKGRFTISRDNAKNTVYLQMNSLKPEDTAVYYCAKDRYTSSTQYRRYDYWGQGTQVTVSS
2. QVQLVESGGGLVQAGGSLRLSCAASGRIFGPNAMGWYRQAPGKERELVASISYSGGSTYYADSVKGRFTISRDNAKNTVYLQMNSLKPEDTAVYYCAKGGYWRGYNYWGQGTQVTVSS
3. QVQLVESGGGLVQAGGSLRLSCAASGRIFQYYDMGWYRQAPGKERELVAAITFSGGSTYYADSVKGRFTISRDNAKNTVYLQMNSLKPEDTAVYYCARGYWVYYPDGDYWGQGTQVTVSS

Result:
high polyreactivity
low polyreactivity
low polyreactivity
